Target: T1, human LTBP1-proTGFβ1 complex (human, UniProt Q14766 347-1721; P01137 30-390)
T1 construct: Large latent complex: one presenting molecule disulfide-linked to a proTGFβ1 dimer; also called Hu LTBP1-proTGFβ1; huLTBP1 proTGFβ1
T1 sequence (Q14766 347-1721 limits assumed, chain 1 of 2): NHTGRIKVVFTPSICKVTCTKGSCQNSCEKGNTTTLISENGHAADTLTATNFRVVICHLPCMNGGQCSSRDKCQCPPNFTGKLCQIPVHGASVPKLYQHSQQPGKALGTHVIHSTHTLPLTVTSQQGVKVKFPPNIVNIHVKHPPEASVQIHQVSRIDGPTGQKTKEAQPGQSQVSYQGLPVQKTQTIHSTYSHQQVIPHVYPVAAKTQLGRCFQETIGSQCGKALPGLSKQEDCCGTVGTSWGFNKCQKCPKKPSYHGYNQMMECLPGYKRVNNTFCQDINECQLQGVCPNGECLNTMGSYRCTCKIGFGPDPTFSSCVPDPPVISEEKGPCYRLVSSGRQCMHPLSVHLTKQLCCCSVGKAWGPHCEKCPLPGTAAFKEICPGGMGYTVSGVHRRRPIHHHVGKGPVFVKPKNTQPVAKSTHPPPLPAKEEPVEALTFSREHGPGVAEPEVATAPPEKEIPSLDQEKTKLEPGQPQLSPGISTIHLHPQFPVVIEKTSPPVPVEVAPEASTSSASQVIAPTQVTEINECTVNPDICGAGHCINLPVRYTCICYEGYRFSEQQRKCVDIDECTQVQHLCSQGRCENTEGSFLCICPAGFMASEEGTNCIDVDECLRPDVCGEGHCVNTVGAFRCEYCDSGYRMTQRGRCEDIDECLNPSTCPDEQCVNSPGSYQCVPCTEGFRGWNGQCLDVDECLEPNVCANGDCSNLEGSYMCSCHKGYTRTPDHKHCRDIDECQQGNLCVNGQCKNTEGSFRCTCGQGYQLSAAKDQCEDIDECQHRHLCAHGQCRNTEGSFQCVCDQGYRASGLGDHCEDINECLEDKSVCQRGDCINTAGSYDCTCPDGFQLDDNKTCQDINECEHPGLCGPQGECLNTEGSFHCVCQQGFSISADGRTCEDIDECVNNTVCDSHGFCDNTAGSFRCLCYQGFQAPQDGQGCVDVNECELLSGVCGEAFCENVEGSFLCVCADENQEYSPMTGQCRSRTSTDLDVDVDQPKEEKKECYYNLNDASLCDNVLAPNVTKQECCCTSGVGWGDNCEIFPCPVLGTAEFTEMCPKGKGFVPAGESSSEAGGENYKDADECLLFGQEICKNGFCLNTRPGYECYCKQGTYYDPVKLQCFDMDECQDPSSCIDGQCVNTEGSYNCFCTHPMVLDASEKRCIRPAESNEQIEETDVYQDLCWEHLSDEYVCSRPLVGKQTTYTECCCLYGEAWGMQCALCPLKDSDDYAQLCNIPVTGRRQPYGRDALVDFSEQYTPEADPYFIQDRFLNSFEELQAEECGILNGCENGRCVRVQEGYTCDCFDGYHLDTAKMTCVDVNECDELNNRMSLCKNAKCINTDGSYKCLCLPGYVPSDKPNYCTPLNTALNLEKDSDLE
T1 sequence (P01137 30-390 limits assumed, chain 2 of 2): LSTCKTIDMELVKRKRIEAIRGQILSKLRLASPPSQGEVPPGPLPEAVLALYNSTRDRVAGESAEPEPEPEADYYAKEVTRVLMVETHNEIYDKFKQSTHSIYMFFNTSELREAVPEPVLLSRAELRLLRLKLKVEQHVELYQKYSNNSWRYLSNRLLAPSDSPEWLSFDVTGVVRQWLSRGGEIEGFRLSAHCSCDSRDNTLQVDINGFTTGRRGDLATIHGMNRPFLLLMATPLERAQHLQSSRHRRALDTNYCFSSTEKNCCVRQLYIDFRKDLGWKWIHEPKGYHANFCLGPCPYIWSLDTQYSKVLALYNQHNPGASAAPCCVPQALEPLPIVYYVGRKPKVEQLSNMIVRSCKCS
Experiment: Octet BLI, IgG captured
Procedure: Binding affinities of the optimized antibodies were measured by Octet against human LTBP1-proTGFβ1, human LTBP3-proTGFβ1, mouse LTBP1-proTGFβ1, mouse LTBP3-proTGFβ1, and GARP-proTGFβ1 complexes, essentially as described in Example 6. […] The antigens were allowed to associate for 3 minutes followed by a 5-minute dissociation. Kinetics buffer (ForteBio®) was used throughout the experiment, and KD was determined using a 1:1 fitting model for each antibody antigen pair.
observable: koff (s⁻¹)
Please reply with the bare figure in s⁻¹ and do not write the unit itself.

Record excerpt, results attached:
1) SR-AB34 (antibody, IgG1, V domains shown, Cycle 3, lineage SR-AB22) VH: QVQLVESGGGVVQPGRSLRLSCAASGFTFRSYVMHWVRQAPGKGLEWVAVISHEGSLKYYADSVKGRFTISRDNSKNTLYLQMNSLRAEDTAVYYCAVPRIAARRGGFGYWGQGTLVTVSS VL: NFMLTQPHSVSESPGKTVTISCTRSSGNIDNNYVQWYQQRPGSSPTTVIYEDNQRPSGVPDRFSGSIDSSSNSASLTISGLKTEDEADYYCQSYDYDAQGVVFGGGTKLTVL | 6e-05
2) SR-AB31 (antibody, IgG1, V domains shown, Cycle 3, lineage SR-AB22) VH: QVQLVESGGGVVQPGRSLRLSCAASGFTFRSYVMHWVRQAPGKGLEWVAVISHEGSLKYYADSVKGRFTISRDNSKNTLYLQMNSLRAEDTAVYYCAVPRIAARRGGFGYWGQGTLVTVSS VL: NFMLTQPHSVSESPGKTVTISCTRSSGNIDNNYVQWYQQRPGSSPTTVIYEDNQRPSGVPDRFSGSIDSSSNSASLTISGLKTEDEADYYCQSYDFNNQGVVFGGGTKLTVL | 9.89e-05
3) SR-AB38 (antibody, IgG1, V domains shown, Cycle 3, lineage SR-AB22) VH: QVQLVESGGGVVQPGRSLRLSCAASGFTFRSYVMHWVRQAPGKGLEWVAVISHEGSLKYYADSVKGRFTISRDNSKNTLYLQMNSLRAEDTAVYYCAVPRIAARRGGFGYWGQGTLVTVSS VL: NFMLTQPHSVSESPGKTVTISCTRSSGSIDNNYVQWYQQRPGSSPTTVIYEDFIRPSGVPDRFSGSIDSSSNSASLTISGLKTEDEADYYCQSYDDDLQGVVFGGGTKLTVL | 0.000117
4) SR-AB42 (antibody, IgG1, V domains shown, Cycle 3, lineage SR-AB23) VH: QVQLVESGGGVVQPGRSLRLSCAASGFTFRSYVMHWVRQAPGKGLEWVAVISHEGSLKYYADSVKGRFTISRDNSKNTLYLQMNSLRAEDTAVYYCARPRIAARRGGFGYWGQGTLVTVSS VL: NFMLTQPHSVSESPGKTVTISCTRSSGNIDNNYVQWYQQRPGSSPTTVIYEDNQRPSGVPDRFSGSIDSSSNSASLTISGLKTEDEADYYCQSYDYDTQGVVFGGGTKLTVL | 6e-05

Any idea what koff was measured for SR-AB39 (antibody, IgG1, V domains shown, Cycle 3, lineage SR-AB22) VH: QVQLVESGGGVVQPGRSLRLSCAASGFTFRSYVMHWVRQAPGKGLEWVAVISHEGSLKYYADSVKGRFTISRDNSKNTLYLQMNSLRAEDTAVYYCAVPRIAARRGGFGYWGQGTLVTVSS VL: NFMLTQPHSVSESPGKTVTISCTRSSGLIDDNYVQWYQQRPGSSPTTVIYEDAQRPSGVPDRFSGSIDSSSNSASLTISGLKTEDEADYYCQSYDHDEQGVVFGGGTKLTVL ?
6e-05

What value of koff has been recorded for this entry: SR-AB37 (antibody, IgG1, V domains shown, Cycle 3, lineage SR-AB22) VH: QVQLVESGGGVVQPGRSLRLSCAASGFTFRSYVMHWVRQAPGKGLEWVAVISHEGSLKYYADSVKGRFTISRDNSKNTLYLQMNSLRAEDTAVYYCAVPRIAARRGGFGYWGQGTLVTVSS VL: NFMLTQPHSVSESPGKTVTISCTRSSGLIDDNYVQWYQQRPGSSPTTVIYEDNQRPSGVPDRFSGSIDSSSNSASLTISGLKTEDEADYYCQSYDSDLQRVVFGGGTKLTVL
0.000118

Report koff for SR-AB41 (antibody, IgG1, V domains shown, Cycle 3, lineage SR-AB23) VH: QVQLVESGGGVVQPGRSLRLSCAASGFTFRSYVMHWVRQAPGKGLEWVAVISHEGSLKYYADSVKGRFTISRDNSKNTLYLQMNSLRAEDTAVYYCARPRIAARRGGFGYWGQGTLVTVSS VL: NFMLTQPHSVSESPGKTVTISCTRSSGNIDNNYVQWYQQRPGSSPTTVIYEDNQRPSGVPDRFSGSIDSSSNSASLTISGLKTEDEADYYCQSYDYDNQAVVFGGGTKLTVL please.
6e-05

For the binder shown here, SR-AB44 (antibody, IgG1, V domains shown, Cycle 3, lineage SR-AB23) VH: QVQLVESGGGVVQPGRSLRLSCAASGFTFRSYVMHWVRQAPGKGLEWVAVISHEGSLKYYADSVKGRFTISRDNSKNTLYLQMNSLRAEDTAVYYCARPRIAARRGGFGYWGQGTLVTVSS VL: NFMLTQPHSVSESPGKTVTISCTRSHGNIDDNYVQWYQQRPGSSPTTVIYEDNVRPSGVPDRFSGSIDSSSNSASLTISGLKTEDEADYYCQSYDSDNQLVVFGGGTKLTVL , give the reported koff.
6e-05

Recorded koff of SR-AB43 (antibody, IgG1, V domains shown, Cycle 3, lineage SR-AB23) VH: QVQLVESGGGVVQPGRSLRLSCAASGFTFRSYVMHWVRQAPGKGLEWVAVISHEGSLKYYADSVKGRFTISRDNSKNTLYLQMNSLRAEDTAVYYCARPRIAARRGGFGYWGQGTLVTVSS VL: NFMLTQPHSVSESPGKTVTISCTRSSGNIDYNYVQWYQQRPGSSPTTVIYEDNVRPSGVPDRFSGSIDSSSNSASLTISGLKTEDEADYYCQSYDSDNQRVVFGGGTKLTVL , please.
0.000159

Could you share which koff value was measured for SR-AB45 (antibody, IgG1, V domains shown, Cycle 3, lineage SR-AB23) VH: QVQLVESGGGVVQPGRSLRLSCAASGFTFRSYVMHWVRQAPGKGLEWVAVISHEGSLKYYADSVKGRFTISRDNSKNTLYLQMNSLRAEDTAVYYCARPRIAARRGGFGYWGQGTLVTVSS VL: NFMLTQPHSVSESPGKTVTISCTRSSGAIDDNYVQWYQQRPGSSPTTVIYEDFQRPSGVPDRFSGSIDSSSNSASLTISGLKTEDEADYYCQSYDDDLQGVVFGGGTKLTVL ?
6e-05
